TARGET OR TEST SYSTEM: CD19 (UniProt P15391)
TEST DETAILS: cell-based or functional assay
Values of Average Signal To Noise (BFP reporter MFI, CD19+ K562 vs K562; no CAR stimulation) greater than or equal to 8 map to Satisfied; values below map to Not satisfied.

INPUT: Does the binder KTKKQRKQMHNHLR (receptor, part only) [hingeNotch STS variant with NRG2 STS (…)] have recorded Average Signal To Noise (BFP reporter MFI, CD19+ K562 vs K562; no CAR stimulation) that is 8 or more?
OUTPUT: Satisfied

INPUT: Does the binder HRRCKHRTGK (receptor, part only) [hingeNotch STS variant with IL1R2 STS (…)] have recorded Average Signal To Noise (BFP reporter MFI, CD19+ K562 vs K562; no CAR stimulation) that is 8 or more?
OUTPUT: Not satisfied

INPUT: Does the binder RRKREH (receptor, part only) [hingeNotch STS variant with Notch3 STS (RRKREH)] have recorded Average Signal To Noise (BFP reporter MFI, CD19+ K562 vs K562; no CAR stimulation) that is 8 or more?
OUTPUT: Satisfied

INPUT: Does the binder HPLRKRRKRKKK (receptor, part only) [hingeNotch STS variant with BTC STS (…)] have recorded Average Signal To Noise (BFP reporter MFI, CD19+ K562 vs K562; no CAR stimulation) that is 8 or more?
OUTPUT: Not satisfied

INPUT: Does the binder RRRSKYSKAK (receptor, part only) [hingeNotch STS variant with EPHA3 STS (…)] have recorded Average Signal To Noise (BFP reporter MFI, CD19+ K562 vs K562; no CAR stimulation) that is 8 or more?
OUTPUT: Not satisfied
